Target: progesterone receptor (Homo sapiens)
Construct: expressed in transfected cells; host or cells: CV-1 cells transduced with PRb-BacMam and MMTV-BacMam
Sequence (P06401 1-933): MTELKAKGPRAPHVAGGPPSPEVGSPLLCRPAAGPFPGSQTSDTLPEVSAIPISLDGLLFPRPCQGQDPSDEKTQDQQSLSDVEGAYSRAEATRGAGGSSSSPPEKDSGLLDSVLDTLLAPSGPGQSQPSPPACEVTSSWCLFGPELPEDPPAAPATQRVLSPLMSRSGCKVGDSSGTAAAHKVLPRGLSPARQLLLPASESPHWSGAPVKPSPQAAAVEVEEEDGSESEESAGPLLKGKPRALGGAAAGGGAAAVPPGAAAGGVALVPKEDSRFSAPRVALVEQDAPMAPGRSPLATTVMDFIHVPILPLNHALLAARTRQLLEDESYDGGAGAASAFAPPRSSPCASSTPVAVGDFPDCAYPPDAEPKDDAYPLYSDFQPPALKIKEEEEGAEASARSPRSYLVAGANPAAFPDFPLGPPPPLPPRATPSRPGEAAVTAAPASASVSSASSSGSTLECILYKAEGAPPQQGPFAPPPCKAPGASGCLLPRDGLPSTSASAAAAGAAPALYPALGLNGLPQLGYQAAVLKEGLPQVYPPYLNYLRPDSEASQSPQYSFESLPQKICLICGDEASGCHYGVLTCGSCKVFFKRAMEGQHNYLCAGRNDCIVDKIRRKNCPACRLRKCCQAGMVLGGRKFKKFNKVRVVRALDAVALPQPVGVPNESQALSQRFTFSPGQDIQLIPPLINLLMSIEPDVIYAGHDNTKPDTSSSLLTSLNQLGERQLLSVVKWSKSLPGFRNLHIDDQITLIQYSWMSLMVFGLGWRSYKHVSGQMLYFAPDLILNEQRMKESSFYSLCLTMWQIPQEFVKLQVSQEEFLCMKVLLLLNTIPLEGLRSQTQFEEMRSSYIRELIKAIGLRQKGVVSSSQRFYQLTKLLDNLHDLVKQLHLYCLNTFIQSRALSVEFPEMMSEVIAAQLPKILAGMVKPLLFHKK
Assay: Assay for progesterone receptor activity (CV-1 cells, PRb-BacMam/MMTV-BacMam)
Format: cell-based
Conditions: CV-1 cells transduced with PRb-BacMam and MMTV-BacMam; read-out: pEC50 progesterone receptor activity (converted)
READOUT: EC50

{"COMPOUND": "CCN(CC(O)(CNC(=O)c1cnn(-c2ccc(F)cc2)c1N)C(F)(F)F)C(=O)c1c(F)cccc1Cl (single isomer, unassigned) [Example 4 Enantiomer 1]", "TARGET_UNDER_TEST": "progesterone receptor (Homo sapiens)", "MEASURED": "> 1 µM"}
{"COMPOUND": "CCN(CC(O)(CNC(=O)c1cnn(-c2ccc(F)cc2)c1N)C(F)(F)F)C(=O)c1c(Cl)cccc1OC(F)F (racemic) [Example 25 (racemic)]", "TARGET_UNDER_TEST": "progesterone receptor (Homo sapiens)", "MEASURED": "> 1 µM"}
{"COMPOUND": "Nc1c(C(=O)NCC(O)(CNC(=O)c2c(Cl)cccc2Br)C(F)(F)F)cnn1-c1ccc(F)cc1 (racemic) [Example 12 (racemic)]", "TARGET_UNDER_TEST": "progesterone receptor (Homo sapiens)", "MEASURED": "> 1 µM"}

Problem: Output measured EC50 for this item: Nc1c(C(=O)NCC(O)(CNC(=O)c2c(C(F)F)cccc2C(F)F)C(F)(F)F)cnn1-c1ccc(F)cc1 (single isomer, unassigned) [Example 43 Enantiomer 1]
Solution: > 1 µM

Problem: Output measured EC50 for this item: CN(CC(O)(CNC(=O)c1cnn(-c2ccc(F)cc2)c1N)C(F)(F)F)C(=O)c1c(Cl)cccc1Cl (racemic) [Example 1 (racemic)]
Solution: > 1 µM

Problem: Output measured EC50 for this item: Nc1c(C(=O)NCC(O)(CN(CCF)C(=O)c2c(Cl)cccc2OC(F)F)C(F)(F)F)cnn1-c1ccc(F)cc1 (racemic) [Example 31 (racemic)]
Solution: > 1 µM
